Parameter: % age antioxidant potential. Scope: all listed entries.
test.name: DPPH radical scavenging assay
run.parameters: 6 mM
Provide only the numeric value, understood in %.

See these solved cases before continuing.
compound | readout.kind | unit.name | reported.measurement
COc1c(F)cccc1C=NNc1nc(-c2ccc(F)cc2)cs1 | % age antioxidant potential | % | 15.62
Fc1ccc(-c2csc(NN=Cc3ccc[nH]3)n2)cc1 | % age antioxidant potential | % | 0.00

Lookup: # input compound: CC(=NNc1nc(-c2ccc(F)cc2)cs1)c1ccc(F)cc1 ; wanted: its % age antioxidant potential
Found: 0.00

Lookup: // next record CSc1ccccc1C=NNc1nc(-c2ccc(F)cc2)cs1
Found: 7.68

* * *

pIC50 values, listed per item
assay.target: α-amylase
test.name: α-Amylase inhibition assay
run.parameters: read-out: IC50 ± SEM, α-amylase inhibition
Quick note: pIC50 means taking -log10 of the concentration in moles per liter.

Reference set (6 entries):
compound | assay.target | pIC50
COc1cc(Br)c(C=NNc2nc(-c3ccc(F)cc3)cs2)cc1OC [3a] | α-amylase | 5.19
CC(=NNc1nc(-c2ccc(F)cc2)cs1)c1ccc(F)cc1 [3g] | α-amylase | 5.16
CSc1ccccc1C=NNc1nc(-c2ccc(F)cc2)cs1 [3o] | α-amylase | 5.11
CC(CCc1ccccc1)=NNc1nc(-c2ccc(F)cc2)cs1 [3c] | α-amylase | 5.12
Fc1ccc(-c2csc(NN=Cc3ccc[nH]3)n2)cc1 [3m] | α-amylase | 5.18
CC(=NNc1nc(-c2ccc(F)cc2)cs1)c1cccc(Br)c1 [3f] | α-amylase | 5.16

Lookup: Notebook: pull reported pIC50 for α-amylase, entry Cc1ccc(C=NNc2nc(-c3ccc(F)cc3)cs2)o1 [3e]
Found: 5.11

Lookup: Request: Fc1ccc(-c2csc(NN=Cc3cccc(C(F)(F)F)c3)n2)cc1 [3i]
Found: 5.17

Lookup: Do the same for Fc1ccc(-c2csc(NN=Cc3cccs3)n2)cc1 [3n] please
Found: 5.24

* * *

test.name: DPPH radical scavenging assay
run.parameters: 12 mM
readout.kind: % age antioxidant potential (%)
Report as a plain number; the unit % is understood.

compound | % age antioxidant potential (%)
CC(=NNc1nc(-c2ccc(F)cc2)cs1)c1cccc(Br)c1 [3f] | 28.70

Attention now turns to another entry.
Lookup: # lookup: % age antioxidant potential of COc1c(F)cccc1C=NNc1nc(-c2ccc(F)cc2)cs1 [3l]
Found: 46.14

* * *

assay.target: Bovine serum albumin (BSA)-glucose model (Bos taurus, UniProt P02769)
Sequence (P02769 25-607): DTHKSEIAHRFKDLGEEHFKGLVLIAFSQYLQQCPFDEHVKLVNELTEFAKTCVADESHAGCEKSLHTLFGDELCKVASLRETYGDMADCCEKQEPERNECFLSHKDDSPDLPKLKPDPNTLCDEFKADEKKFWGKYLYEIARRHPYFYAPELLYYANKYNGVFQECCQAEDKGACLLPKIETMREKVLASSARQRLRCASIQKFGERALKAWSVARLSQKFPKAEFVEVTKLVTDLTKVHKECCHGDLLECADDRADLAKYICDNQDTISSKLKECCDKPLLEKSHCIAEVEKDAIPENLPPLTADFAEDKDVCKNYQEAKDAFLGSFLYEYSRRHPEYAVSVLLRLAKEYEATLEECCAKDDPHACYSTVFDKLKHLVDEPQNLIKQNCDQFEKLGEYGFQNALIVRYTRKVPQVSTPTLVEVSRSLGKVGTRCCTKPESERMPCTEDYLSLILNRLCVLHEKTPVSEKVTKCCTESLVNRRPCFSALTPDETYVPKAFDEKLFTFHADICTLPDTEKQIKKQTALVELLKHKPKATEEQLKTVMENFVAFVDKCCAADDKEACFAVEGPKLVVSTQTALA
test.name: In vitro anti-glycation assay, BSA-glucose model
Assay type: biochemical
run.parameters: read-out: % age antiglycation inhibition
readout.kind: inhibition at 100 ppm (%)
Note: unit % is implicit; provide only the numeric part.

compound.structure.string | reported.measurement
Fc1ccc(-c2csc(NN=Cc3ccc(C(F)(F)F)cc3)n2)cc1 | 87.4
CC(CCc1ccccc1)=NNc1nc(-c2ccc(F)cc2)cs1 | 67.6
Fc1ccc(-c2csc(NN=Cc3ccccc3C(F)(F)F)n2)cc1 | 87.4
Cc1ccc(C=NNc2nc(-c3ccc(F)cc3)cs2)o1 | 68.7
Fc1ccc(-c2csc(NN=Cc3ccc[nH]3)n2)cc1 | 76.8
Oc1ccc(Cl)cc1C=NNc1nc(-c2ccc(F)cc2)cs1 | 50.9
Fc1ccc(-c2csc(NN=Cc3cccc(C(F)(F)F)c3)n2)cc1 | 88
CC(=NNc1nc(-c2ccc(F)cc2)cs1)c1cccc(Br)c1 | 84.1
COc1cc(Br)c(C=NNc2nc(-c3ccc(F)cc3)cs2)cc1OC | 80.9
Fc1ccc(-c2csc(NN=Cc3cccs3)n2)cc1 | 79.3

Lookup: Would you mind telling me what inhibition at 100 ppm value was observed for CC(=NNc1nc(-c2ccc(F)cc2)cs1)c1ccc(F)cc1 ?
Found: 24.3

Lookup: What do we get for COc1c(F)cccc1C=NNc1nc(-c2ccc(F)cc2)cs1 ?
Found: 79.9

Lookup: Entry to check: CSc1ccccc1C=NNc1nc(-c2ccc(F)cc2)cs1
Found: 83.7

Lookup: Try this molecule next: CCOc1ccccc1C=NNc1nc(-c2ccc(F)cc2)cs1
Found: 52.3

Lookup: Now consider Cc1ccc(C=NNc2nc(-c3ccc(F)cc3)cs2)c(Br)c1 .
Found: 81.2

* * *

assay.target: Bovine serum albumin (BSA)-glucose model (Bos taurus)
test.name: In vitro anti-glycation assay, BSA-glucose model
Format: biochemical
run.parameters: read-out: % age antiglycation inhibition
readout.kind: inhibition at 800 ppm (%)
Give your result in % as a bare value.

compound.structure.string | inhibition at 800 ppm, %
Fc1ccc(-c2csc(NN=Cc3cccs3)n2)cc1 | 85.8

Lookup: For the compound shown here, CC(=NNc1nc(-c2ccc(F)cc2)cs1)c1cccc(Br)c1 , give the reported inhibition at 800 ppm.
Found: 90.4

Lookup: Proceed to CC(CCc1ccccc1)=NNc1nc(-c2ccc(F)cc2)cs1
Found: 77.9

Lookup: Likewise for Fc1ccc(-c2csc(NN=Cc3ccccc3C(F)(F)F)n2)cc1 ?
Found: 90

Lookup: Next compound up: Cc1ccc(C=NNc2nc(-c3ccc(F)cc3)cs2)c(Br)c1
Found: 86.8

Lookup: Note, next up: CCOc1ccccc1C=NNc1nc(-c2ccc(F)cc2)cs1
Found: 76.2

* * *

assay.target: Bovine serum albumin (BSA)-glucose model (Bos taurus, UniProt P02769)
test.name: In vitro anti-glycation assay, BSA-glucose model
Assay type: biochemical
run.parameters: read-out: % age antiglycation inhibition
Hi, to clarify the labels: 1 covers inhibition at 200 ppm from 80% upward, 0 covers anything below 80%.

Reference set, count: 5
compound.structure.string | class.assignment
Cc1ccc(C=NNc2nc(-c3ccc(F)cc3)cs2)o1 | 0
Cc1ccc(C=NNc2nc(-c3ccc(F)cc3)cs2)c(Br)c1 | 1
CC(=NNc1nc(-c2ccc(F)cc2)cs1)c1cccc(Br)c1 | 1
CSc1ccccc1C=NNc1nc(-c2ccc(F)cc2)cs1 | 1
Fc1ccc(-c2csc(NN=Cc3cccc(C(F)(F)F)c3)n2)cc1 | 1

Lookup: Reported inhibition at 200 ppm reaches at least 80% for CC(CCc1ccccc1)=NNc1nc(-c2ccc(F)cc2)cs1 ?
Found: 0

Lookup: Query Fc1ccc(-c2csc(NN=Cc3ccc(C(F)(F)F)cc3)n2)cc1 next
Found: 1

* * *

assay.target: Bovine serum albumin (BSA)-glucose model (Bos taurus)
test.name: In vitro anti-glycation assay, BSA-glucose model
readout.kind: pIC50
// pIC50: -log10(molar conc.)

Lookup: Need pIC50 of CC(=NNc1nc(-c2ccc(F)cc2)cs1)c1ccc(F)cc1 , thanks.
Found: 2.75

* * *

assay.target: Bovine serum albumin (BSA)-glucose model (Bos taurus, UniProt P02769)
test.name: In vitro anti-glycation assay, BSA-glucose model
Format: biochemical
run.parameters: read-out: % age antiglycation inhibition
Listed here are compounds together with their documented inhibition at 400 ppm.
State the answer as a number, implicitly in %.

compound | unit.name | inhibition at 400 ppm
Fc1ccc(-c2csc(NN=Cc3ccc(C(F)(F)F)cc3)n2)cc1 [3d] | % | 89
Cc1ccc(C=NNc2nc(-c3ccc(F)cc3)cs2)o1 [3e] | % | 70.7
CSc1ccccc1C=NNc1nc(-c2ccc(F)cc2)cs1 [3o] | % | 85.5
Fc1ccc(-c2csc(NN=Cc3ccccc3C(F)(F)F)n2)cc1 [3k] | % | 88.8
Cc1ccc(C=NNc2nc(-c3ccc(F)cc3)cs2)c(Br)c1 [3b] | % | 85.2

Note: attention shifts to another entry.
Lookup: What value of measured inhibition at 400 ppm is listed for CC(CCc1ccccc1)=NNc1nc(-c2ccc(F)cc2)cs1 [3c] ?
Found: 69.7

* * *

assay.target: Bovine serum albumin (BSA)-glucose model (Bos taurus)
test.name: In vitro anti-glycation assay, BSA-glucose model
Assay type: biochemical
run.parameters: read-out: % age antiglycation inhibition
Quick rule for you: inhibition at 200 ppm at 80% or higher means 1, lower means -1.

Consider the worked cases shown below.
compound.structure.string | class.assignment
Fc1ccc(-c2csc(NN=Cc3ccccc3C(F)(F)F)n2)cc1 | 1
CC(=NNc1nc(-c2ccc(F)cc2)cs1)c1ccc(F)cc1 | -1
Oc1ccc(Cl)cc1C=NNc1nc(-c2ccc(F)cc2)cs1 | -1

Lookup: Hi, just wondering whether CCOc1ccccc1C=NNc1nc(-c2ccc(F)cc2)cs1 shows inhibition at 200 ppm of 80% or higher.
Found: -1

* * *

assay.target: Bovine serum albumin (BSA)-glucose model (Bos taurus)
test.name: In vitro anti-glycation assay, BSA-glucose model
Type: biochemical
run.parameters: read-out: % age antiglycation inhibition
readout.kind: inhibition at 600 ppm (%)
Answer with a number only, understood to be in %.

Lookup: Bovine serum albumin (BSA)-glucose model (Bos taurus) / inhibition at 600 ppm / COc1c(F)cccc1C=NNc1nc(-c2ccc(F)cc2)cs1 : value?
Found: 84.6

Lookup: Also CC(CCc1ccccc1)=NNc1nc(-c2ccc(F)cc2)cs1 ?
Found: 75.7

Lookup: Another compound: CC(=NNc1nc(-c2ccc(F)cc2)cs1)c1ccc(F)cc1
Found: 54.3

Lookup: Please give the result for Cc1ccc(C=NNc2nc(-c3ccc(F)cc3)cs2)o1 too.
Found: 71.8

Lookup: And the next one, Oc1ccc(Cl)cc1C=NNc1nc(-c2ccc(F)cc2)cs1 ?
Found: 68.4
